Recorded values, source ChEMBL document CHEMBL1961873.

EXPERIMENTAL_SYSTEM: Homeodomain-interacting protein kinase 4 (Homo sapiens);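 note: values are mean percent inhibition of HIPK4 from the GSK PKIS kinase screen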
EXPERIMENTAL_PARAMETERS: at 1 µM

{"STRUCTURE_SMILES": "Nc1nc(-c2ccc(F)cc2)c(-c2ccc3ncccc3n2)s1", "UNIT": "%", "inhibition": 11}
{"STRUCTURE_SMILES": "NS(=O)(=O)c1ccc(Nc2ncc(-c3ccccc3)o2)cc1", "UNIT": "%", "inhibition": 24.3}
{"STRUCTURE_SMILES": "Nc1nc(-c2cccc(Cl)c2)c(-c2ccc3ncccc3n2)s1", "UNIT": "%", "inhibition": 13.9}
{"STRUCTURE_SMILES": "CCn1c(-c2nonc2N)nc2cnc(Oc3cccc(NC(=O)c4ccc(N(C)C)cc4)c3)cc21", "UNIT": "%", "inhibition": 3.8}
{"STRUCTURE_SMILES": "COc1ccc(-c2nn3ncccc3c2-c2ccnc(Nc3ccc4c(c3)OCCO4)n2)cc1", "UNIT": "%", "inhibition": -1.16}

* * *

Tested on: Tyrosine-protein kinase ABL1 (Homo sapiens), P00519 [E255K]
Sequence (P00519 whole entry E255K): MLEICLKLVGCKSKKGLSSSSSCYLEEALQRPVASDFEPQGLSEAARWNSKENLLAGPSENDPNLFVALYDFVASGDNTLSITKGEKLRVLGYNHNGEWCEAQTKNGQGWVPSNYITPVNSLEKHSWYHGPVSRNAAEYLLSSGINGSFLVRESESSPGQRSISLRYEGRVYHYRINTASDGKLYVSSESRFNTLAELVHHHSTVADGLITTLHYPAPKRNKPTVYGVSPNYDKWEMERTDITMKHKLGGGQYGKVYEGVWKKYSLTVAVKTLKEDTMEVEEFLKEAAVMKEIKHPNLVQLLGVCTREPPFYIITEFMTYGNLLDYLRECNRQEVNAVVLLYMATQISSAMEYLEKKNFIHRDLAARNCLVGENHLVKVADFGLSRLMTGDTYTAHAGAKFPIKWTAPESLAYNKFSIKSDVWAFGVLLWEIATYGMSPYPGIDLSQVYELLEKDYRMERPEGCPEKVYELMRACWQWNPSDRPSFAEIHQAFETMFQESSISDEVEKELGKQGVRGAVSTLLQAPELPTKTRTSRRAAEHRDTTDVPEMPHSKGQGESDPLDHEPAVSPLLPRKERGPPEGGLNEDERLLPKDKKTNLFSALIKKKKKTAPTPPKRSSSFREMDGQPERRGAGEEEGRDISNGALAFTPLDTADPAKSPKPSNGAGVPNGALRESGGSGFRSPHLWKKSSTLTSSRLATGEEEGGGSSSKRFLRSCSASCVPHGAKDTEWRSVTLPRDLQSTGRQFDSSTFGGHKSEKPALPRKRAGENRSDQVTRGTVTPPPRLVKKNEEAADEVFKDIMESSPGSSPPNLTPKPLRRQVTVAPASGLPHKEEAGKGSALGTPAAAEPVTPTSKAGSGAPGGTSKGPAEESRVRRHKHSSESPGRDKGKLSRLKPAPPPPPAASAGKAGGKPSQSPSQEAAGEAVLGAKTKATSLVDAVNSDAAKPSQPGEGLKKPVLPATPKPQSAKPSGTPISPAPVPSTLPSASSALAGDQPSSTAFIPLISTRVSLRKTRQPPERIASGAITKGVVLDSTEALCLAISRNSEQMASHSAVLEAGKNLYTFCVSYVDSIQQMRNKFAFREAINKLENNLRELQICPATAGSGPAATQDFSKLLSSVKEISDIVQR
EXPERIMENTAL_PARAMETERS: at 0.1 µM
Recorded measurements of inhibition, one per entry
REPORTED_PROPERTY: inhibition (%)

{"STRUCTURE_SMILES": "CCCN1CCC(c2ccc(Nc3nc(Nc4cc(F)ccc4C(N)=O)c4cc[nH]c4n3)c(OC)c2)CC1", "RECORDED_RESULT": 4.38}
{"STRUCTURE_SMILES": "COc1cccc(-n2ncc3c(N/N=C/c4ccc(F)cc4)ncnc32)c1", "RECORDED_RESULT": 44.1}
{"STRUCTURE_SMILES": "COc1cc(N2CCN(C(C)C)CC2)ccc1Nc1nc(Nc2ccc(F)cc2C(N)=O)c2cc[nH]c2n1", "RECORDED_RESULT": -0.24}
{"STRUCTURE_SMILES": "COc1ccc(-c2nn3ncccc3c2-c2ccnc(Nc3ccc4c(c3)OCCO4)n2)cc1", "RECORDED_RESULT": -0.56}
{"STRUCTURE_SMILES": "CCn1c(-c2nonc2N)nc2c(C#CC(C)(C)O)nc(OC[C@H](N)c3ccccc3)cc21", "RECORDED_RESULT": -1.28}
{"STRUCTURE_SMILES": "O=S(=O)(CCNCc1ccc(-c2ccc3ncnc(Nc4ccc(OCc5cccc(F)c5)c(Cl)c4)c3c2)o1)c1ccccc1", "RECORDED_RESULT": 3.29}
{"STRUCTURE_SMILES": "NS(=O)(=O)c1ccc(N/N=C2\\C(=O)Nc3ccc4ncccc4c32)cc1", "RECORDED_RESULT": 7.3}
{"STRUCTURE_SMILES": "COc1ccc(-c2cc3c(N)ncnc3o2)cc1", "RECORDED_RESULT": 0.23}
{"STRUCTURE_SMILES": "O=C(Nc1n[nH]c2cc(-c3ccc(F)cc3)ccc12)C1CC1", "RECORDED_RESULT": 9.03}
{"STRUCTURE_SMILES": "COC(=O)Nc1nc2ccc(S(=O)(=O)c3ccc(NC(=O)Nc4cc(C(F)(F)F)ccc4F)cc3)cc2[nH]1", "RECORDED_RESULT": 1.6}
{"STRUCTURE_SMILES": "Cc1ccc2c(-c3ccnc(Nc4ccccc4)n3)c(-c3ccc(F)cc3)nn2n1", "RECORDED_RESULT": 3.13}
{"STRUCTURE_SMILES": "CCc1nn2ncccc2c1-c1ccnc(NC2CC2)n1", "RECORDED_RESULT": 0.71}
{"STRUCTURE_SMILES": "Fc1ccc(-c2nn3ncccc3c2-c2ccnc(Nc3ccc4c(c3)OCCO4)n2)cc1", "RECORDED_RESULT": 10.2}
{"STRUCTURE_SMILES": "COc1ccc(-c2oc3ncnc(N)c3c2-c2ccc(NC(=O)Nc3cc(C(F)(F)F)ccc3F)cc2)cc1", "RECORDED_RESULT": 3.15}
{"STRUCTURE_SMILES": "Fc1ccc(-c2cc(-c3c[nH]nc3-c3ccccn3)ccn2)cc1", "RECORDED_RESULT": 3.42}
{"STRUCTURE_SMILES": "N#Cc1c(NC(=O)c2ccc(F)cc2)sc2c1CCCC2", "RECORDED_RESULT": 0.33}
{"STRUCTURE_SMILES": "CCNC(=O)O[C@H]1CN[C@H](C#Cc2cc3ncnc(Nc4ccc(OCc5cccc(F)c5)c(Cl)c4)c3s2)C1", "RECORDED_RESULT": 4.1}
{"STRUCTURE_SMILES": "Fc1cccc(COc2ccc(Nc3ncnc4sc(-c5ccco5)cc34)cc2Cl)c1", "RECORDED_RESULT": 3.34}
{"STRUCTURE_SMILES": "COc1cc2c(cc1Nc1nc(Nc3ccsc3C(N)=O)c3cc[nH]c3n1)N(C(=O)CN(C)C)CCC2(C)C", "RECORDED_RESULT": 0.79}
{"STRUCTURE_SMILES": "CN(C)CCOc1ccc(-c2nc(-c3ccncc3)c(-c3ccc4c(c3)CC/C4=N\\O)[nH]2)cc1", "RECORDED_RESULT": 4.28}
